target: IKs (KCNE1) (Cavia porcellus, UniProt Q60409); test: Inhibition of Iks tail current in guinea pig ventricular myocytes at 100 uM; type: cell-based, Ventricular myocyte
Sequence (Q60409 whole entry): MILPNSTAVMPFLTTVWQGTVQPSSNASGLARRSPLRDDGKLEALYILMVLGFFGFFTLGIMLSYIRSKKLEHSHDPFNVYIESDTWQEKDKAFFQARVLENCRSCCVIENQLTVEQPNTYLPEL
quantity.name: inhibition at 100 µM
Field: value (include unit after the number)

Q: Please provide the recorded inhibition at 100 µM for `COc1cc2c(cc1O)[C@@H](Cc1ccc(O)c(Oc3ccc(C[C@@H]4c5cc(OC)c(OC)cc5CCN4C)cc3)c1)N(C)CC2` , tested on IKs (KCNE1) (Cavia porcellus, UniProt Q60409).
Ans: 50%

###

experiment: Cmax in dog at 30 uM, iv administered as bolus dose; format: ADME, organism-based, Canis lupus familiaris; parameters: dose 30 uM, route intravenous; conditions: in vivo
quantity.name: Cmax at 30 µM (nM)
Give bare numbers, in nM.

Q: Need Cmax at 30 µM of `COc1cc2c(cc1O)[C@@H](Cc1ccc(O)c(Oc3ccc(C[C@@H]4c5cc(OC)c(OC)cc5CCN4C)cc3)c1)N(C)CC2` , thanks.
Ans: 1700

###

assay: Cmax in rabbit at 30 uM, iv administered as bolus dose; assay type: ADME, organism-based, Oryctolagus cuniculus; parameters: dose 30 uM, route intravenous; conditions: in vivo
quantity.name: Cmax at 30 µM (nM)
Give bare numbers, in nM.

Q: Need Cmax at 30 µM of `COc1cc2c(cc1O)[C@@H](Cc1ccc(O)c(Oc3ccc(C[C@@H]4c5cc(OC)c(OC)cc5CCN4C)cc3)c1)N(C)CC2` , thanks.
Ans: 1700

###

target: Potassium voltage-gated channel subfamily E member 1 (Oryctolagus cuniculus, UniProt Q28705); experiment: Inhibition of Iks tail current in rabbit ventricular myocytes
Sequence (Q28705 whole entry): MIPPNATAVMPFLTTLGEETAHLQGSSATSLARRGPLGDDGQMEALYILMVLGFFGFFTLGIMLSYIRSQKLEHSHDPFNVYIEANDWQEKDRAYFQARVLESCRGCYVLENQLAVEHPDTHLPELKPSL
quantity.name: IC50 (µM)
Give bare numbers, in µM.

Q: Need IC50 of `COc1cc2c(cc1O)[C@@H](Cc1ccc(O)c(Oc3ccc(C[C@@H]4c5cc(OC)c(OC)cc5CCN4C)cc3)c1)N(C)CC2` , thanks.
Ans: 52.5
